- assay text: qHTS of Nrf2 Activators; also: nearly all actives have a fitted effect of over 65% in size
- measurement setup: AREc32 ARE-luciferase reporter, luminescence, 24 h; series mostly up to 46.1 µM
Screen size: about 410,000 compounds; about 1,200 (0.29%) were called active. Not shown: some 2% with an inconclusive outcome. Calls follow the shape of the dose curve; as a rule, active = well fitted activation curve with a large enough effect; inconclusive = small, poorly fitted or top-dose-only effect; inactive = flat fitted curve, though single readings scatter. This is one part of a sample in which actives are shown more often than they occur.
Possible outcomes: active, inactive

compound: Cc1c2cnn(-c3ccccc3)c(=O)c2c(C)n1C(C)C(=O)Nc1ccc(Br)cc1F (stereo not drawn)
group label: inactive
//
compound: O=C(Nc1ccccc1Cl)Nc1cccc2cccnc12
group label: active
//
compound: c1ccc(-c2ccnc3nc(-n4cccc4)nn23)cc1
group label: active
//
compound: COc1cccc(N2CC(NC(=O)/C=C\c3ccccc3)CC2=O)c1 (stereo not drawn)
group label: inactive
//
compound: O=C(Nc1nc2c(s1)CCCC2)c1ccccc1F
group label: inactive
//
compound: Cc1ccc(NC(=O)Cn2nnc3sc4c(c3c2=O)CCC(C)C4)cc1 (stereo not drawn)
group label: inactive
//
compound: COc1ccc(-n2ccnc(NCCc3ccc(Cl)cc3)c2=O)cc1OC
group label: inactive
//
compound: COc1ccc(CCNC(=O)CCCn2c(=O)c3ccccc3n(Cc3ccc(F)cc3Cl)c2=O)cc1OC
group label: inactive
//
compound: Cc1nc(-c2ccccc2)sc1-c1nc(-c2ccccc2)ncc1S(=O)(=O)c1ccccc1
group label: inactive
//
compound: O=C(Nc1cc(-c2nc3ncccc3o2)ccc1Cl)c1ccco1
group label: active
//
compound: CCn1c2ccccc2c2nnc(N3CCN(c4cc(C)ccc4C)CC3)nc21
group label: inactive
//
compound: CC(OC(=O)CN1C(=O)COc2ccccc21)C(=O)NCc1ccc(F)cc1 (stereo not drawn)
group label: inactive
//
compound: Cc1cccc(C(=O)Nc2ccc(-c3nc4ncccc4o3)cc2C)c1
group label: inactive
//
compound: COc1ccccc1NC(=O)c1cc(S(=O)(=O)NCCc2ccccc2)ccc1F
group label: inactive
//
compound: CCCN1CCc2nc(N3CCN(C)CC3)ncc2C1
group label: inactive
//
compound: O=C1/C(=C/c2cccs2)CCC1C1CCCC1 (stereo not drawn)
group label: inactive
//
compound: CCCOc1ccc(-c2cccc(NS(=O)(=O)c3ccccc3)c2)nn1
group label: inactive
//
compound: O=C(Nc1ccc(OC(F)(F)F)cc1)C1CCCN(S(=O)(=O)c2ccc(Br)s2)C1 (stereo not drawn)
group label: inactive
//
compound: O=C(CN1C(=O)COc2ccccc21)Nc1ccc(F)cc1
group label: active
//
compound: CC(C)(C)c1ccc(C(=O)N2CCC(c3nc(-c4ccc(S(=O)(=O)N5CCCC5)cc4)no3)CC2)cc1
group label: inactive
//
compound: Cc1cc(NC(=O)c2ccc(-c3ccc(Cl)cc3)o2)cc(-c2nc3ncccc3o2)c1O
group label: inactive
//
compound: COc1ccc(Cl)cc1NC(=O)CSc1nc(=O)[nH]c2c1CCCC2
group label: inactive
//
compound: Cc1ccccc1CS(=O)(=O)CC1Nc2ccc(C(=O)NCc3ccc(Cl)cc3)cc2NC1=O (stereo not drawn)
group label: inactive
//
compound: CCOC(=O)c1ccc(N2C(=O)c3[nH]nc(-c4ccccc4)c3C2c2ccc(C(C)C)cc2)cc1 (stereo not drawn)
group label: inactive
//
compound: Cc1cccc2c(=O)cc(CSc3ccccc3NC(=O)C(C)C)[nH]c12
group label: inactive
//
compound: O=C1CSC2(C(=O)N(Cc3ccccc3)c3ccccc32)N1c1cccc(F)c1 (stereo not drawn)
group label: inactive
//
compound: CCCOC(=O)c1c(NC(=O)c2cc3nc(-c4ccc(OC)cc4)cc(C(F)(F)F)n3n2)sc2c1CCCC2
group label: inactive
//
compound: Cc1nc(N)sc1-c1ccccc1
group label: inactive
//
compound: CC(=O)N1CCN(S(=O)(=O)c2c(F)cc(F)c(Cl)c2F)CC1
group label: active
//
compound: Cc1ccc2cccc(NC(=O)c3cccc4ccccc34)c2n1
group label: inactive
//
compound: O=C(CN1C(=O)COc2ccc(Cl)cc21)Nc1ccc(N2CCOCC2)cc1
group label: inactive
//
compound: COc1ccc(/C=C/C(=O)c2cc(Br)ccc(=O)c2O)cc1
group label: active
//
compound: Cc1ccc(NC(=O)CN2C(=O)C(c3ccc(F)cc3)=NC23CCCCCC3)c(C)c1
group label: inactive
//
compound: CC(Nc1ccc(-c2nc(-c3ccco3)no2)cc1[N+](=O)[O-])c1ccccc1 (stereo not drawn)
group label: inactive
//
compound: CC(C)C(=O)Nc1nc2c(s1)CC(C(C)(C)C)CC2 (stereo not drawn)
group label: inactive
//
compound: Cc1ccccc1NC(=O)c1cnn(-c2ccccc2)c1NC(=O)c1ccco1
group label: inactive
//
compound: Cc1cc(-c2ccccc2)n2nc(-c3ccccc3)cc2n1
group label: inactive
//
compound: O=S(=O)(c1cccs1)N1CCc2ccccc2C1
group label: inactive
//
compound: O=S(=O)(c1ccc(Cl)cc1)c1nnn2c1nc(NC1CCCC1)c1sccc12
group label: inactive
//
compound: O=c1[nH]nc(SCCS(=O)(=O)c2ccc(F)cc2)n1-c1ccccc1C(F)(F)F
group label: active
//
compound: Cc1cccc(OCC(=O)N(Cc2ccc(C(C)C)cc2)Cc2ccco2)c1C
group label: inactive
//
compound: CCOc1ccc(CCNC(=O)c2ccc3c(c2)sc2nc(-c4ccc(F)cc4)cn23)cc1OCC
group label: inactive
//
compound: COc1ccc2oc(=O)c(-c3cn4c(n3)sc3cc(OC)ccc34)cc2c1
group label: inactive

====

- assay text: qHTS of Nrf2 Activators; also: nearly all actives have a fitted effect of over 65% in size; also: potency is read from the fitted curve at half-maximal effect
- measurement setup: AREc32 ARE-luciferase reporter (MCF7-derived line), luminescence, 24 h; series mostly up to 46.1 µM
About 1,200 (0.29%) of roughly 410,000 compounds were called active. About 2% were inconclusive and are not listed. For the sample, actives were picked, then their nearest neighbours and some compounds at random.
parameter: Potency

compound: CCC(CC)c1nnc(NC(=O)C2=COCCO2)s1
obs value: inactive

compound: CCCc1nc2c3ccccc3ccn2c1Cc1ccccc1C(F)(F)F
obs value: inactive

compound: O=C(CSc1nc2ccc([N+](=O)[O-])cc2[nH]1)c1ccc(Cl)cc1
obs value: 11.2 µM (active)

compound: Cn1c(=O)c2c(n3c4ccccc4nc13)NC(=O)CC2c1cccc(Cl)c1 (stereo not drawn)
obs value: inactive

compound: O=C1/C(=C\c2ccc(O)cc2)CCC1CNc1ccc(Cl)cc1 (stereo not drawn)
obs value: 11.2 µM (active)

compound: CCOCC(=O)Nc1cc(OC)c(Cl)cc1OC
obs value: inactive

compound: CCOc1cc(NC(=O)CCl)c(OCC)cc1NC(C)=O
obs value: 14.1 µM (active)

compound: COc1ccc(Br)cc1CN(C)CC(=O)Nc1cc([N+](=O)[O-])ccc1OC
obs value: inactive

compound: O=C(NCc1ccc2c(c1)CCN2C(=O)c1ccccc1)Nc1cc(F)ccc1F
obs value: inactive

compound: O=S(=O)(c1ccc2nc(NCc3ccccc3Cl)ccc2c1)N1CCCCC1
obs value: inactive

compound: O/N=C(\c1ccc2c(c1)OCCO2)C1CCCCC1
obs value: inactive

compound: CCCNC(=O)C1CCC(Cn2c(=O)c3sccc3n(Cc3ccccc3F)c2=O)CC1 (stereo not drawn)
obs value: inactive

compound: COc1ccc(C(=O)Nc2onc3c2CCCC3)cc1
obs value: inactive

compound: CCN(CC)c1ccc(NC(=O)CN2C(=O)c3cccnc3Oc3ccc(Cl)cc32)c(C)c1
obs value: inactive

compound: N#CC1=C(N)Oc2c(sc3ccccc23)C1c1ccco1 (stereo not drawn)
obs value: 3.16 µM (active)

compound: COc1ccc(NC(=O)c2ccc3nc(C(C)C)oc3c2)cc1OC
obs value: inactive

compound: Cc1cccc(NC(=O)CSc2nnc(CNC(=O)c3cccc(C)c3)n2-c2ccccc2)c1
obs value: inactive

compound: COc1ccccc1-c1nnc(SCC(N)=O)o1
obs value: inactive

compound: Cc1cc(NCc2ccco2)n2c(nc3ccccc32)c1C#N
obs value: 5.01 µM (active)

compound: CCOc1cc(NC(=O)c2ccccc2C(=O)O)c(OCC)cc1NC(=O)c1ccccc1F
obs value: inactive

compound: O=C(CSc1nc(Nc2ccc(F)c(F)c2)c2ccccc2n1)c1ccc(Cl)cc1
obs value: inactive

compound: O=C(Nc1ccc(Cl)cc1)c1csc([C@@H]2O[C@H](CO)[C@H](O)[C@H](O)[C@H]2O)n1
obs value: inactive

compound: Cc1cc(C)cc(NC(=O)c2cnc3sc(N4CCCC4)nn3c2=O)c1
obs value: inactive

compound: O=C(Nc1cc(-c2nc3ccccc3o2)ccc1Cl)c1cc([N+](=O)[O-])ccc1N1CCOCC1
obs value: inactive

compound: CC(C)c1ccc(NC(=O)C2CCN(c3nc(-c4ccc(C(C)C)cc4)no3)CC2)cc1
obs value: inactive

compound: Cc1ccc(-c2csc(C(C#N)=C(O)CN3CCN(C(=O)c4ccco4)CC3)n2)cc1
obs value: inactive

compound: CCc1cc2c(cc(C(=O)OC)n2Cc2nc(-c3ccc(C)cc3)oc2C)s1
obs value: inactive

compound: CCOC(=O)c1c(NC(C)=O)c2c3c(sc2n1Cc1c(C)cc(C)cc1C)CCCC3
obs value: inactive

compound: CC(=O)c1cccc(NC(=O)c2nc(-c3ccccc3)n(-c3cccc(C)c3)n2)c1
obs value: inactive

compound: COc1ccc([N+](=O)[O-])cc1NC(=O)COC(=O)/C=C/c1ccco1
obs value: 11.2 µM (active)

compound: COc1ccc(NC(=O)CCc2nnc3n(CC(C)C)c(=O)c4ccccc4n23)cc1OC
obs value: inactive

compound: COc1ccc(Cc2nnc(SCC(=O)c3cccc([N+](=O)[O-])c3)n2C)cc1
obs value: inactive

compound: COc1cc(Cl)c(NC(=O)CC(C)S(=O)(=O)c2cc3c(cc2C)NC(=O)CO3)c(OC)c1 (stereo not drawn)
obs value: inactive

compound: COC(=O)c1ccc2nc(-c3ccc(F)cc3)c(Cc3ccc(C)cc3)n2c1
obs value: inactive

compound: O=C(Nc1ccc(Cl)cc1)c1ccsn1
obs value: 11.2 µM (active)

compound: CCOC(=O)c1c(C)[nH]c(C)c1S(=O)(=O)N1CCC(C(=O)Nc2ccc(C)c(Cl)c2)CC1
obs value: inactive

compound: N#CC(=C1CCCC1)c1nc(-c2ccc(Cl)cc2)cs1
obs value: inactive

compound: Cc1ccccc1OCC(=O)Nc1c(C(=O)Nc2ccccc2F)oc2ccccc12
obs value: inactive

compound: C/C=C/C(=O)Nc1nnc(C(C)C)s1
obs value: inactive

compound: CCC(CC)c1nnc(NC(=O)/C=C/c2ccco2)s1
obs value: 2.51 µM (active)

compound: COc1ccc(-c2csc(-c3c(N)c(C(=O)c4ccc(OC)c(OC)c4)n4ccccc34)n2)cc1
obs value: inactive

compound: O=C(COC(=O)/C=C/c1ccc2c(c1)OCO2)NC1CCS(=O)(=O)C1 (stereo not drawn)
obs value: inactive

compound: CCOC(=O)c1ccc2c(c1)N(Cc1cccc(OC)c1)C(=O)c1ccccc1S2(=O)=O
obs value: inactive
